self-aminoacylation overview
system: biotinyl-Trp-oxazolone; experiment: self-aminoacylation, catalytic enhancement (BWO) (fold over background); higher = more active; k-Seq, kA / k0A0; sequences stand for … in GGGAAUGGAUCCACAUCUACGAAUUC…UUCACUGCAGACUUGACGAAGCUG
This sample holds only a part of the variants without activity.

[
  {
    "residue_string": "CUCCUUCAAACAUUCGGUCUG [Fam1A.1 aminoacylation ribozyme variant]",
    "self-aminoacylation": 1.66
  },
  {
    "residue_string": "UUUACCCUGGUGAUCGAGUGA [Fam2.1 aminoacylation ribozyme variant]",
    "self-aminoacylation": 7.87
  },
  {
    "residue_string": "AUGUUUGCUAAUAGUCACAAG [Fam3.1 aminoacylation ribozyme variant]",
    "self-aminoacylation": 2.35
  },
  {
    "residue_string": "CUAUUUCAAACAACCGGUCUG [Fam1A.1 aminoacylation ribozyme variant]",
    "self-aminoacylation": 0.827
  },
  {
    "residue_string": "AUUCCCCUAGGUCACCGGGUG [Fam2.2 aminoacylation ribozyme variant]",
    "self-aminoacylation": 21.7
  },
  {
    "residue_string": "ACUCACCUAGGGCAUCGGGUG [Fam2.2 aminoacylation ribozyme variant]",
    "self-aminoacylation": 6.35
  },
  {
    "residue_string": "AAGUUUGCUACUAGUCGCAUG [Fam3.1 aminoacylation ribozyme variant]",
    "self-aminoacylation": 0.836
  },
  {
    "residue_string": "CCACACUUCAACCAUUCGGUC [Fam1B.1 aminoacylation ribozyme variant]",
    "self-aminoacylation": 1.98
  },
  {
    "residue_string": "AUGUAUGCUAAUAGUCGCAAG [Fam3.1 aminoacylation ribozyme variant]",
    "self-aminoacylation": 1.95
  },
  {
    "residue_string": "ACACACUUCAAACAAUCGGUC [Fam1B.1 aminoacylation ribozyme variant]",
    "self-aminoacylation": 40.6
  },
  {
    "residue_string": "UUUACCCUGGUCAGCGAGUGA [Fam2.1 aminoacylation ribozyme variant]",
    "self-aminoacylation": 7.06
  },
  {
    "residue_string": "CCACACGUCAACCAAUCGGUC [Fam1B.1 aminoacylation ribozyme variant]",
    "self-aminoacylation": 1.32
  },
  {
    "residue_string": "CCACACCUCAAGCAAUCGAUC [Fam1B.1 aminoacylation ribozyme variant]",
    "self-aminoacylation": 0.298
  },
  {
    "residue_string": "AUUACCAUCGUCAUCGAGUGA [Fam2.1 aminoacylation ribozyme variant]",
    "self-aminoacylation": 3.53
  },
  {
    "residue_string": "AAGUAUGCUAAUAGUCGGAAG [Fam3.1 aminoacylation ribozyme variant]",
    "self-aminoacylation": 4.24
  },
  {
    "residue_string": "CCCCACUUCAAUCAAUCGGUC [Fam1B.1 aminoacylation ribozyme variant]",
    "self-aminoacylation": 31
  },
  {
    "residue_string": "CCACACUUCAAGCAAUCAGUA [Fam1B.1 aminoacylation ribozyme variant]",
    "self-aminoacylation": 0.842
  },
  {
    "residue_string": "AAGAUUGCUAAUGGUCGCAAG [Fam3.1 aminoacylation ribozyme variant]",
    "self-aminoacylation": 1.06
  }
]

====

Recorded self-aminoacylation values for a group of sequences are listed next.
system: biotinyl-Phe-oxazolone; test: self-aminoacylation, catalytic enhancement (BFO) (fold over background); higher = more active; k-Seq, kA / k0A0; sequences stand for … in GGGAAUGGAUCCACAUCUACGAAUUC…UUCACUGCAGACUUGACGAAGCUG
Variants at the floor of the assay were thinned out.

[
  {
    "residue_string": "CUAAUUCAAACAAUGGGUCUG [Fam1A.1 aminoacylation ribozyme variant]",
    "self-aminoacylation": 0.481
  },
  {
    "residue_string": "AUUACCCUGGUAAUUGAGUGA [Fam2.1 aminoacylation ribozyme variant]",
    "self-aminoacylation": 117
  },
  {
    "residue_string": "CUACUUCAAACAAUCGGUCAG [Fam1A.1 aminoacylation ribozyme variant]",
    "self-aminoacylation": 16.7
  },
  {
    "residue_string": "CCACACUUCAAGCCAUUGGUC [Fam1B.1 aminoacylation ribozyme variant]",
    "self-aminoacylation": 0.631
  },
  {
    "residue_string": "AUUCACUUAGGUAAUCGGGUG [Fam2.2 aminoacylation ribozyme variant]",
    "self-aminoacylation": 19.6
  },
  {
    "residue_string": "AUUACACUGGUCAUCCAGUGA [Fam2.1 aminoacylation ribozyme variant]",
    "self-aminoacylation": 9.37
  },
  {
    "residue_string": "AAGUUUGAUAAUAGUAGCAAG [Fam3.1 aminoacylation ribozyme variant]",
    "self-aminoacylation": 0.835
  },
  {
    "residue_string": "AAGUUUGCUCAUAGUCCCAAG [Fam3.1 aminoacylation ribozyme variant]",
    "self-aminoacylation": 1.29
  },
  {
    "residue_string": "AAAUUUGCUAAGAGUCGCAAG [Fam3.1 aminoacylation ribozyme variant]",
    "self-aminoacylation": 2.61
  }
]

====

system: biotinyl-Met-oxazolone; test: self-aminoacylation, catalytic enhancement (BMO) (fold over background); higher = more active; k-Seq, kA / k0A0; sequences stand for … in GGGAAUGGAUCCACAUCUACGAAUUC…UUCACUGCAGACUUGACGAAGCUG
This sample holds only a part of the variants without activity.
assay_metric: self-aminoacylation

[
  {
    "residue_string": "CCAUACUACAAGCAAUCGGUC [Fam1B.1 aminoacylation ribozyme variant]",
    "numeric_result": 0.696
  },
  {
    "residue_string": "CCACAAUUGAAGCAAUCGGUC [Fam1B.1 aminoacylation ribozyme variant]",
    "numeric_result": 0.746
  },
  {
    "residue_string": "CUACUUCAAACAAUCGGCCUG [Fam1A.1 aminoacylation ribozyme variant]",
    "numeric_result": 1.87
  },
  {
    "residue_string": "CUACUUCAAAUAAUUGGUCUG [Fam1A.1 aminoacylation ribozyme variant]",
    "numeric_result": 0.953
  },
  {
    "residue_string": "AUUCAUCUAGCUCAUCGGGUG [Fam2.2 aminoacylation ribozyme variant]",
    "numeric_result": 2.12
  },
  {
    "residue_string": "CUACUUCAACCAAACGGUCUG [Fam1A.1 aminoacylation ribozyme variant]",
    "numeric_result": 0.704
  },
  {
    "residue_string": "CCACACUACAAGCAUUCGGUC [Fam1B.1 aminoacylation ribozyme variant]",
    "numeric_result": 2.58
  },
  {
    "residue_string": "GUUACCCUGGUCAUCGAGGGA [Fam2.1 aminoacylation ribozyme variant]",
    "numeric_result": 5.05
  }
]

====

tested on: biotinyl-Ile-oxazolone; assay: self-aminoacylation, catalytic enhancement (BIO) (fold over background); higher = more active; k-Seq, kA / k0A0; sequences stand for … in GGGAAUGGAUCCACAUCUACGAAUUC…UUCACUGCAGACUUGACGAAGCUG
Fewer inactive variants are shown than the library holds.
Param threshold (2) applies to self-aminoacylation; output Satisfied when value >= threshold, Not satisfied when value < threshold.

[
  {
    "residue_string": "CCACACUUCAUGCAAUCGUUC [Fam1B.1 aminoacylation ribozyme variant]",
    "label_value": "Not satisfied"
  },
  {
    "residue_string": "AAGUUUGCUCAAAGUCGCAAG [Fam3.1 aminoacylation ribozyme variant]",
    "label_value": "Not satisfied"
  },
  {
    "residue_string": "CUACUUCACACACUCGGUCUG [Fam1A.1 aminoacylation ribozyme variant]",
    "label_value": "Not satisfied"
  },
  {
    "residue_string": "CUACUGCAAACAACCGGUCUG [Fam1A.1 aminoacylation ribozyme variant]",
    "label_value": "Not satisfied"
  },
  {
    "residue_string": "AUUUUCCUAGGUCAUCGGGUG [Fam2.2 aminoacylation ribozyme variant]",
    "label_value": "Satisfied"
  },
  {
    "residue_string": "CCACACUUAAAGCAAACGGUC [Fam1B.1 aminoacylation ribozyme variant]",
    "label_value": "Not satisfied"
  },
  {
    "residue_string": "CCUCAUUUCAAGCAAUCGGUC [Fam1B.1 aminoacylation ribozyme variant]",
    "label_value": "Not satisfied"
  },
  {
    "residue_string": "CUACUUCAAACAAUCAGUCUU [Fam1A.1 aminoacylation ribozyme variant]",
    "label_value": "Not satisfied"
  },
  {
    "residue_string": "CUACUCCAAACUAUCGGUCUG [Fam1A.1 aminoacylation ribozyme variant]",
    "label_value": "Not satisfied"
  },
  {
    "residue_string": "AUACACCUAGGUGAUCGGGUG [Fam2.2 aminoacylation ribozyme variant]",
    "label_value": "Satisfied"
  },
  {
    "residue_string": "CCACAAUUCAAGCAAGCGGUC [Fam1B.1 aminoacylation ribozyme variant]",
    "label_value": "Not satisfied"
  },
  {
    "residue_string": "CUACUUCAAACACUCGUUCUG [Fam1A.1 aminoacylation ribozyme variant]",
    "label_value": "Not satisfied"
  },
  {
    "residue_string": "AAGUUUGGUAAGAGUCGCAAG [Fam3.1 aminoacylation ribozyme variant]",
    "label_value": "Not satisfied"
  },
  {
    "residue_string": "CUACUGCAAACAAUUGGUCUG [Fam1A.1 aminoacylation ribozyme variant]",
    "label_value": "Not satisfied"
  },
  {
    "residue_string": "AAGUUCGCUACUAGUCGCAAG [Fam3.1 aminoacylation ribozyme variant]",
    "label_value": "Satisfied"
  },
  {
    "residue_string": "AUUACCCGGGACAUCGAGUGA [Fam2.1 aminoacylation ribozyme variant]",
    "label_value": "Satisfied"
  },
  {
    "residue_string": "AUUCUCCUAGGUCACCGGGUG [Fam2.2 aminoacylation ribozyme variant]",
    "label_value": "Satisfied"
  },
  {
    "residue_string": "AUUCACCUAGGUUAUCCGGUG [Fam2.2 aminoacylation ribozyme variant]",
    "label_value": "Satisfied"
  },
  {
    "residue_string": "AUUCAACUAGGGCAUCGGGUG [Fam2.2 aminoacylation ribozyme variant]",
    "label_value": "Satisfied"
  },
  {
    "residue_string": "CUACUUCAACCCAUCGGUCUG [Fam1A.1 aminoacylation ribozyme variant]",
    "label_value": "Not satisfied"
  },
  {
    "residue_string": "AAUACCCUGGUCAUCGAGCGA [Fam2.1 aminoacylation ribozyme variant]",
    "label_value": "Not satisfied"
  },
  {
    "residue_string": "AUUACCCUGGUCAUAGCGUGA [Fam2.1 aminoacylation ribozyme variant]",
    "label_value": "Satisfied"
  },
  {
    "residue_string": "CUACUACAAAGAAUCGGUCUG [Fam1A.1 aminoacylation ribozyme variant]",
    "label_value": "Not satisfied"
  },
  {
    "residue_string": "CUACUUCAAACAAGCGGACUG [Fam1A.1 aminoacylation ribozyme variant]",
    "label_value": "Not satisfied"
  },
  {
    "residue_string": "AAGUUUGCUUAUAGUGGCAAG [Fam3.1 aminoacylation ribozyme variant]",
    "label_value": "Not satisfied"
  },
  {
    "residue_string": "CUACGUCAAACAAUCGGUCUC [Fam1A.1 aminoacylation ribozyme variant]",
    "label_value": "Not satisfied"
  },
  {
    "residue_string": "CCACACUUCAAGCACUGGGUC [Fam1B.1 aminoacylation ribozyme variant]",
    "label_value": "Not satisfied"
  },
  {
    "residue_string": "CUAAUUCAAACAAUGGGUCUG [Fam1A.1 aminoacylation ribozyme variant]",
    "label_value": "Not satisfied"
  },
  {
    "residue_string": "CCACACUUCAAGCCAUCGGUG [Fam1B.1 aminoacylation ribozyme variant]",
    "label_value": "Satisfied"
  },
  {
    "residue_string": "AUUAACCUAGGUCACCGGGUG [Fam2.2 aminoacylation ribozyme variant]",
    "label_value": "Satisfied"
  },
  {
    "residue_string": "AUUUCCCUGGUCAUCGAGUGA [Fam2.1 aminoacylation ribozyme variant]",
    "label_value": "Satisfied"
  },
  {
    "residue_string": "AAUCACCUAGGUCAUCCGGUG [Fam2.2 aminoacylation ribozyme variant]",
    "label_value": "Satisfied"
  },
  {
    "residue_string": "AUUACCCGGGUCAUCGAGUGA [Fam2.1 aminoacylation ribozyme variant]",
    "label_value": "Satisfied"
  },
  {
    "residue_string": "AUGUUUGCUAAUAGUCACAAG [Fam3.1 aminoacylation ribozyme variant]",
    "label_value": "Not satisfied"
  }
]
